- protocol_summary: viability profiling in MM1S myeloma cells – cell-based, resazurin fluorescence, basal, 24 h, PK04 Diversity Set, profiling panel (AID 1174);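 further: MM1S multiple myeloma cell line; test concentration not given here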
- recorded_conditions: higher = more signal, called active from +8 up or from −8 down
z-score reference
// no unit string in output, number only

>  <compound>
O=C1C2C=CC(C(O)c3cccc(O)c3)N(Nc3ccc([N+](=O)[O-])cc3)C2C(=O)N1c1ccccc1 (stereo unspecified)

>  <z-score>
-0.337

$$$$

# input Which value of z-score has been reported for "CCCNC(=O)[C@@]1(Sc2ccc(C)cc2)CC(=O)N(C2Cc3ccccc3C2)[C@@H]1c1ccc(CO)cc1I" in the records?
# output -1.67

---

- protocol_summary: growth effects on S. cerevisiae YJM789 – YJM789 clinical isolate, OD600, 24 h, basal, primary screen (AID 1089);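 further: growth of clinical yeast isolate S. cerevisiae YJM 789 seeded 1000 cells per well; test concentration not given here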
- recorded_conditions: higher = more signal, called active from +8 up or from −8 down
Rule: z-score of 0.3 or more gives 1; anything lower gives -1.

>  <compound>
CCCCC[C@H]1OC[C@@]23C=C(Br)[C@@H](CC12)[C@@]1(CO1)C3=O (some centres undefined)

>  <class_assignment>
-1

$$$$
>  <compound>
CC(C)NC(=O)[C@@]1(C)c2ccccc2C(=O)N(Cc2ccc(OC(F)(F)F)cc2)[C@H]1c1ccc(CO)cc1

>  <class_assignment>
1

$$$$
>  <compound>
COC(=O)c1c(CC[C@@H](CO)NC(=O)N[C@@H](C)Cn2cc(-c3ccccn3)nn2)oc(C(C)=O)c1C(=O)OC

>  <class_assignment>
-1

$$$$

# input Say whether CC(C)(C)OC(=O)CC[C@@]1(C(=O)NCC(O)CO)N=C(c2ccc(OCCCO)cc2)O[C@@H]1c1ccccc1CN=[N+]=[N-] (some centres undefined) shows z-score of 0.3 or more.
# output -1

# input Now consider "COc1cccc(C)c1NC(=O)O[C@H]1[C@H](OC(=O)Nc2ccc3c(c2)OCO3)[C@@H](OC(=O)Nc2ccc3c(c2)OCO3)[C@@H](OC)O[C@@H]1CO" and answer again.
# output 1

# input How about this compound: "C=CCNC(=O)[C@@H]1[C@H]2C(=O)O[C@H](c3ccccc3)[C@H](c3ccccc3)N2[C@H](c2ccc(OCCO)cc2)[C@@]12C(=O)N(C(=O)OCCOC)c1ccc(C#Cc3ccc(OC)cc3)cc12"
# output 1

# input Please answer likewise for "O=C(O)[C@@H]1C[C@@H]2C(=O)N3CCC[C@H]3C(=O)N2[C@@H]1c1ccc(O)cc1"
# output -1

# input What about "CO[C@H]1O[C@H](CO)[C@@H](OC(=O)Nc2ccccc2)[C@H](OC(=O)c2cc3ccccc3[nH]2)[C@H]1OC(=O)c1cc2ccccc2[nH]1" ?
# output -1

---

- protocol_summary: probe aLefty2 binding to arrayed compounds – biochemical, biotinylated probe, 635/667 nm fluorescence, primary screen (AID 1094);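 further: score merges spot fluorescence near 667 nm with spot signal-to-noise ratio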
- recorded_conditions: small-molecule microarray, higher = more signal
readout_type: composite z-score
Just the number, please.

>  <compound>
[N-]=[N+]=Nc1ccccc1C[C@]1(C(=O)O)COC(c2ccc(OCCCO)cc2)=N1

>  <composite z-score>
-0.195

$$$$
>  <compound>
N[C@@H](Cc1ccccc1)C(=O)NCc1cn(Cc2ccccc2)nn1

>  <composite z-score>
0.0582

$$$$
>  <compound>
COCCOC(=O)N1C(=O)[C@@]2(c3cc(C#CC4(O)CCCCCC4)ccc31)[C@H](C(=O)Nc1nc3ccccc3s1)[C@H]1C(=O)O[C@H](c3ccccc3)[C@H](c3ccccc3)N1[C@@H]2c1ccc(O)cc1

>  <composite z-score>
-0.0022

$$$$
>  <compound>
COc1ccccc1CN1C(=O)c2ccccc2[C@](Cc2ccccc2I)(C(=O)O)[C@@H]1c1ccc(CO)cc1

>  <composite z-score>
-0.0031

$$$$
>  <compound>
C=CC[C@]1(C(=O)N2CCOCC2)COC(c2ccc(OCCCO)cc2)=N1

>  <composite z-score>
0.0386

$$$$

# input What composite z-score value was documented for this compound, "COc1ccc(C(=O)Nc2ccc(CN3C(=O)[C@]4(O[C@H](CC(=O)N5Cc6ccccc6C[C@H]5CO)[C@@H]([Si](C)(C)c5ccc(OC)cc5)[C@@H]4C)c4ccccc43)cc2)cc1" ?
# output -0.145

# input Field entry: "C=CC[C@@H](OC(=O)Nc1ccc(OC)cc1)c1ccc(O)c(F)c1"
# output -0.146

# input Also need "CCCC=C(CCC)[C@@H](NP(=O)(c1ccccc1)c1ccccc1)c1ccc(-c2ccccc2)cc1" , thanks.
# output 0.123

# input Subsequent entry: C=CCC(OC(C)=O)[C@@H]1[C@@H](N(Cc2cc3ccccc3o2)C(=O)Cc2ccc(F)cc2)c2cc(OCCCO)ccc2N1C(=O)Cc1ccc2ccccc2c1 (stereo not given in full)
# output -0.0736

# input Can you check "CCCC[C@@H](O)C1=C(COC)C[C@H]2C(=O)N(Cc3ccccc3)C(=O)[C@H]2[C@H]1CO" next?
# output -0.241
